Numbers sourced from patent EP4435105.

- EXPERIMENTAL TARGET: T1, human ASGR-1 (on CHO-S cells) (human, UniProt P07306)
- T1 chain: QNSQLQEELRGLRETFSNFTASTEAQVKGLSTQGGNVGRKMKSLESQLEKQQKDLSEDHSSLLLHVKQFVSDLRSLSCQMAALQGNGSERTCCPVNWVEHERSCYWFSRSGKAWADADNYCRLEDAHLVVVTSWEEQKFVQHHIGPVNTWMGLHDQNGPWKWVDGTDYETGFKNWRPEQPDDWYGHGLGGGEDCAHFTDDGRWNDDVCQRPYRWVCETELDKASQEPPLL
- ASSAY TEXT: competition, FACS, asialofetuin
READOUT LABEL: IC50

Input: Which IC50 is listed for 176H4 (antibody, V domains shown) VH: QVQLVESGGGVVQPGRSLRLSCAASGFTFSSYGMHWVRQAPGKGLEWVAIIWYDGSYKYYADSVKGRFTISRDNSKNTLYLQMSSLRAEDTAVYYCARDAHDFWSGYFAYWGQGALVTVSS VL: DIVMTQTPLSLSVTPGQPASISCKSSQSLLHGDGKTYLYWYLQKPGQPPQLLIYEVSNRFSGVPDRFSGSGSGTDFTLKISRVEAEDVGIYYCMQSIQIPWTFGQGTRVEIK ?
Output: 59 nM

Input: What do you get for 4A2 (antibody, V domains shown) VH: QVQLVQSGTEVKKPGASVKVSCKASGYTFTNYDINWVRQATGQGLEWMGWMHPNSGNTGYAQKFQGRVTLTRDTSISTAYMELSSLRSEDTAVYYCASSSGWYYFDYWGQGTLVTVSS VL: DIVMTQSPDSLAVSLGERATINCKSSQSILHSSNNNNYLAWFQQKPGQPPKLLLYWASTRESGVPDRFSGSGSGTDFTLTISSLQPEDVAVYYCQQYYNTPVTFGPGTKVGIK ?
Output: 11 nM
